# IC50 against ROCK2 (Homo sapiens, UniProt O75116), merged from multiple literature sources
# Sequence (O75116 whole entry, species assumed): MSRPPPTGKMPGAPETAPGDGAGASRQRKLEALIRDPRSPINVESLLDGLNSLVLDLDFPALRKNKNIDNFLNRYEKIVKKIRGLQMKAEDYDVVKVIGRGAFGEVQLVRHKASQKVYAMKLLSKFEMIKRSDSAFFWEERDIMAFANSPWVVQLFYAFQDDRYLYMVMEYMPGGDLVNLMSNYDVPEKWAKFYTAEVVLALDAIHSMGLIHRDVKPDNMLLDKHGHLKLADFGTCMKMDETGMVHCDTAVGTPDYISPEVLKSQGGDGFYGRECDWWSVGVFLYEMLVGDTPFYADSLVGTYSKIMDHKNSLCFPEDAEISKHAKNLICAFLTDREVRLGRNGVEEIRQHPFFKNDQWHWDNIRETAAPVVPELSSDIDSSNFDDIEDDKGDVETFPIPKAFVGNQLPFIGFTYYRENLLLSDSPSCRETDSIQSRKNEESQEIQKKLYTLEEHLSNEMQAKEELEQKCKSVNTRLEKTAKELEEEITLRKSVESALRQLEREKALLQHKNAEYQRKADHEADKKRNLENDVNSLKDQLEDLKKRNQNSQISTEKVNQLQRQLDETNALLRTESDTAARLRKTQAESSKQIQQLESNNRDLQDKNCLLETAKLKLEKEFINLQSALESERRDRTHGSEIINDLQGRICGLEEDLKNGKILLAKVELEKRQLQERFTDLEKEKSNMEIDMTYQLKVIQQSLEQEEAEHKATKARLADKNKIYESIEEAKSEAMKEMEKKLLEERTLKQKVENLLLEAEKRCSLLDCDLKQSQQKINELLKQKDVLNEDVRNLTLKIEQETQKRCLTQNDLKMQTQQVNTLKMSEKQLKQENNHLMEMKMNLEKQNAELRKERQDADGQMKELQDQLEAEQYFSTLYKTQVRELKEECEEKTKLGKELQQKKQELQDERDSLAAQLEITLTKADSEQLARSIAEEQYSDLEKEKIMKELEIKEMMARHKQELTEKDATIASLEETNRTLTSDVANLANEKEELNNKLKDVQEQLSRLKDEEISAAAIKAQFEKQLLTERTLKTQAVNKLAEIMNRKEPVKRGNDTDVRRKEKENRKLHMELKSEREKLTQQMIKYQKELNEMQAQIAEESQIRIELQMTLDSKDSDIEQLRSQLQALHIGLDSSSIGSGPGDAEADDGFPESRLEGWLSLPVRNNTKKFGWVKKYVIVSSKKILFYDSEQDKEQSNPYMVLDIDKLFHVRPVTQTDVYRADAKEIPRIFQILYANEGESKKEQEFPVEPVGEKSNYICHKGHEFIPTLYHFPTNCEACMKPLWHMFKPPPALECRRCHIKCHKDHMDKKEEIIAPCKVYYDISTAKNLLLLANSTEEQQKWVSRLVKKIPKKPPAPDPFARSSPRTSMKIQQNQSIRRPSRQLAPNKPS

Record excerpt, results attached:
>>> assay_result("COc1cc(F)cc(CNC(=O)N2CCCc3sc(-c4cn[nH]c4)nc32)c1")
"0.05 to 0.5 µM"
>>> assay_result("Cn1c(C(=O)N2CC(F)(F)C2)cc2c1CN(c1nnc(Nc3ccc(-c4cn[nH]c4)cc3)o1)CC2")
"> 4.5 µM"
>>> assay_result("O=C1N(Cc2cc(F)ccc2F)CCN1c1ccc2c(n1)OCc1n[nH]cc1-2")
"0.1 to 0.5 µM"

Please examine the following record next.
Fill in the blank: the reported IC50 of CC(C)(O)Cn1nc(C(=O)NC2CC3(C2)CC(c2n[nH]c(=O)c4ccccc24)C3)c2ccc(/C=C\C3CC3)cc21 (stereo not shown) is ____. 0.0051 to 0.015 µM

* * *

# pIC50 against ROCK2 (Homo sapiens, UniProt O75116), merged from multiple literature sources
pIC50: −log10 of the molar value.

Record excerpt, results attached:
>>> assay_result("COc1cccc(CN2C(=O)N(c3ncc(-c4cn[nH]c4)c(OC)n3)CC23CCN(C(C)=O)CC3)c1")
"7.52 to 8.52"
>>> assay_result("COc1cc(F)cc(CNC(=O)N2Cc3ccc(-c4cn[nH]c4)cc3C2)c1")
"6.30 to 7.30"
>>> assay_result("O=C(NC(c1ccccc1)c1ccccc1)N1CCc2cc(-c3cn[nH]c3)ccc21")
"5.30 to 6.30"
>>> assay_result("COc1nc(N2CC3(CCN(C(=O)CO)CC3)N(Cc3cccc(F)c3C)C2=O)ccc1-c1cn[nH]c1")
"> 8.52"
>>> assay_result("O=C1N(c2ccc(-c3cn[nH]c3)cc2)CCC12Cc1ncccc1N2 (centres unmarked)")
"6.52 to 7.52"
>>> assay_result("CS(=O)(=O)c1ccn2c(C(=O)N[C@H]3CC4(C3)C[C@H](c3n[nH]c(=O)c5ccccc53)C4)cnc2c1 (some centres unmarked)")
"7.82 to 8.29"
>>> assay_result("COc1cc(F)cc(CN(C)C(=O)N2CCc3cc(-c4cn[nH]c4)ccc32)c1")
"6.30 to 7.30"

Please examine the following record next.
Param readout= pIC50; system= ROCK2 (Homo sapiens, UniProt O75116); entry= CN1CCN(Cc2ccc3c(C(=O)NC4CC5(C4)CC(c4n[nH]c(=O)c6ccccc46)C5)cnn3c2)CC1 (centres unmarked) ; returns value. 8.30 to 8.70

* * *

# pIC50 against ROCK2 (Homo sapiens), merged from multiple literature sources
pIC50: −log10 of the molar value.

Record excerpt, results attached:
>>> assay_result("COc1cc(F)cc(CNC(=O)N2CC(C)(C)c3cc(-c4cn[nH]c4)ccc32)c1")
"≥ 7.30"
>>> assay_result("[H][C@]1(c2n[nH]c(=O)c3ccccc32)C[C@@]2(C[C@H](NC(=O)c3cnc4cc(N5CC[C@@H](F)C5)ccn34)C2)C1 (stereo partly drawn)")
"8.70 to 9.70"
>>> assay_result("COc1cccc(C(CO)N2CCN(c3ccc(-c4cn[nH]c4)c(C)n3)C2=O)c1 (single isomer, unassigned)")
"7.70 to 8.68"

Please examine the following record next.
Param readout= pIC50; system= ROCK2 (Homo sapiens); entry= CC1(C)CN(CCOc2ccc3c(C(=O)NC4CC5(C4)CC(c4n[nH]c(=O)c6ccccc46)C5)cnn3c2)CCO1 (stereo not drawn) ; returns value. 8.70 to 9.70

* * *

# IC50 against ROCK2 (Homo sapiens, UniProt O75116), merged from multiple literature sources

Record excerpt, results attached:
>>> assay_result("O=C1N(c2ccc(-c3cn[nH]c3)cc2)CCC12Cc1ccccc1O2 (racemic)")
"< 3 nM"
>>> assay_result("O=C(NC1CC2(C1)CC(c1n[nH]c(=O)c3ccccc13)C2)c1cnn2cc(OCCN3CCC(F)C3)ccc12 (centres unmarked)")
"0.2 to 2 nM"
>>> assay_result("COc1cccc(Cn2ccn(-c3ccc(-c4cn[nH]c4)cc3)c2=O)c1")
"< 2 nM"
>>> assay_result("O=C1N(c2ccc(-c3cn[nH]c3)cc2)C[C@@H](CO)N1Cc1cccc(OCC2CC2)c1")
"2.1 to 20 nM"

Param readout= IC50; system= ROCK2 (Homo sapiens, UniProt O75116); entry= "Cn1c(C(=O)N2CC(F)(F)C2)cc2c1CN(c1nc(CC#N)nc(Nc3ccc(-c4cn[nH]c4)cc3)n1)CC2" ; returns value. 50 to 500 nM

Param readout= IC50; system= ROCK2 (Homo sapiens, UniProt O75116); entry= [H][C@]1(c2n[nH]c(=O)c3ccccc32)C[C@]2(C[C@@H](NC(=O)c3nc(C(C)C)n4c3CCCC4)C2)C1 (some centres unmarked) ; returns value. 2.01 to 5 nM

Param readout= IC50; system= ROCK2 (Homo sapiens, UniProt O75116); entry= [H][C@]1(c2n[nH]c(=O)c3ccccc32)C[C@]2(C[C@@H](NC(=O)C3=C(OCC)C(=O)N(CC(F)(F)F)C3)C2)C1 (some centres unmarked) ; returns value. 15.1 to 100 nM

Param readout= IC50; system= ROCK2 (Homo sapiens, UniProt O75116); entry= "COc1ccc(F)cc1Cn1cnn(-c2ccc(-c3cn[nH]c3)cc2)c1=O" ; returns value. 250 to 2000 nM

* * *

# IC50 against ROCK2 (Homo sapiens, UniProt O75116), merged from multiple literature sources

Record excerpt, results attached:
>>> assay_result("O=C(NC1CC2(C1)CC(c1n[nH]c(=O)c3ccccc13)C2)c1cnn2cc(N3CCOCC3)ccc12 (stereo not drawn)")
"2.01 to 5 nM"
>>> assay_result("COc1cccc(F)c1CN1CCN(c2ccc(-c3cn[nH]c3)c(F)c2)C1=O")
"20.1 to 200 nM"

Param readout= IC50; system= ROCK2 (Homo sapiens, UniProt O75116); entry= "CCc1nc(N2CC3(CCN(C(=O)OC)CC3)N(Cc3cccc(OC)c3)C2=O)ccc1-c1cn[nH]c1" ; returns value. < 3 nM

Param readout= IC50; system= ROCK2 (Homo sapiens, UniProt O75116); entry= O=C(N[C@H]1CC2(C1)C[C@H](c1n[nH]c(=O)c3ccccc31)C2)c1onc2cc(Br)ccc12 (stereo partly drawn) ; returns value. 2.01 to 5 nM

* * *

# IC50 against ROCK2 (Homo sapiens, UniProt O75116), merged from multiple literature sources

Record excerpt, results attached:
>>> assay_result("Cn1c(C(=O)N2CC(C(F)F)C2)cc2c1CN(c1ncc(F)c(Nc3ccc(-c4c[nH]nc4F)cc3)n1)CC2")
"50 to 500 nM"
>>> assay_result("CN1CCN(CCOc2ccc3c(C(=O)NC4CC5(C4)CC(c4n[nH]c(=O)c6ccccc46)C5)cnn3c2)CC1 (stereo not drawn)")
"0.2 to 2 nM"
>>> assay_result("COc1nc(N2CCN(Cc3cccnc3)C2=O)ccc1-c1cn[nH]c1")
"2.1 to 20 nM"
>>> assay_result("CCCOC(=O)c1cccc(C(=O)Nc2cccc(CN3CCC(Nc4cccc5cnccc45)C3)c2)c1 (stereo not drawn)")
"< 100 nM"
>>> assay_result("O=c1n(Cc2cccc(F)c2)nnn1-c1ccc(-c2cn[nH]c2)cc1")
"50 to 250 nM"

Param readout= IC50; system= ROCK2 (Homo sapiens, UniProt O75116); entry= CC(C)(O)Cn1nc(C(=O)NC2CC3(C2)CC(c2n[nH]c(=O)c4ccccc24)C3)c2ccc(-c3ccc(Cl)cc3)cc21 (stereo not drawn) ; returns value. 5.1 to 15 nM

Param readout= IC50; system= ROCK2 (Homo sapiens, UniProt O75116); entry= O=C(NC1CC2(C1)CC(c1n[nH]c(=O)c3ccccc13)C2)c1cnn2cc(-c3cn[nH]c3)ccc12 (stereo not drawn) ; returns value. 0.2 to 2 nM

Param readout= IC50; system= ROCK2 (Homo sapiens, UniProt O75116); entry= "Cn1c(C(=O)N2CC(F)(F)C2)cc2c1CN(c1nccc(Nc3ccc(Oc4ncccc4C(N)=O)c(F)c3)n1)CC2" ; returns value. 500 to 4500 nM

Param readout= IC50; system= ROCK2 (Homo sapiens, UniProt O75116); entry= O=C1C(Nc2ccc3c(c2)CCNC3)CCN1c1ccc(-c2n[nH]c(=O)c3ccccc23)cc1 (stereo not drawn) ; returns value. 100 to 500 nM

* * *

# IC50 against ROCK2 (Homo sapiens, UniProt O75116), merged from multiple literature sources

Record excerpt, results attached:
>>> assay_result("O=C(NC1CC2(C1)CC(c1n[nH]c(=O)c3ccccc13)C2)c1cnn2cc(CCCN3CCC(F)(F)CC3)ccc12 (stereo not shown)")
"2.01 to 5 nM"
>>> assay_result("COc1cccc(CN2C(=O)N(c3ccc(-c4cn[nH]c4)cc3)CC23CC3)c1")
"< 3 nM"
>>> assay_result("COc1cccc(CN2CCN(c3ccc(-c4ccncc4F)c(OC)n3)C2=O)c1")
"2.1 to 20 nM"

Param readout= IC50; system= ROCK2 (Homo sapiens, UniProt O75116); entry= COc1cccc(CN2CC(CO)N(c3ccc(-c4cn[nH]c4)cc3)C2=O)c1 (single isomer, unassigned) ; returns value. 20.1 to 200 nM

Param readout= IC50; system= ROCK2 (Homo sapiens, UniProt O75116); entry= "COc1cc(-n2nc(C)n(Cc3cccc(F)c3)c2=O)ccc1-c1cn[nH]c1" ; returns value. < 5 nM

Param readout= IC50; system= ROCK2 (Homo sapiens, UniProt O75116); entry= O=C(NC1CC2(C1)CC(c1n[nH]c(=O)c3ccccc13)C2)c1cnn2cc(OCC(O)(C(F)(F)F)C(F)(F)F)ccc12 (stereo not shown) ; returns value. 2.01 to 5 nM

Param readout= IC50; system= ROCK2 (Homo sapiens, UniProt O75116); entry= O=C1C(Nc2cccc(OC(F)F)c2)CCN1c1ccc(-c2n[nH]c(=O)c3ccccc23)cc1 (racemic) ; returns value. < 10 nM
